These data points were gathered from patent US8883963B2.

This section presents molecules with their documented % degradation of peptidomimetics in 24 h when incubated with simulated intestinal fluid values.
Experiment: Stability in simulated intestinal fluid
Assay type: in vitro ADME
Settings: 2 μM peptidomimetic, simulated intestinal fluid pH 7.5, 37° C., 24 h
Non-standard residues stand in square brackets, D forms with d. Residues, ends and D or L forms follow the SMILES beside them. ξ: configuration not given here. ξBip(2'-Et-4'-OMe) = CCc1cc(OC)ccc1-c1ccc(CC(N)C(=O)O)cc1; ξNva(5-(4-Cl-2-MePh)) = Cc1cc(Cl)ccc1CCCC(N)C(=O)O
reported_metric: % degradation of peptidomimetics in 24 h when incubated with simulated intestinal fluid (%)

- molecule: "CCc1cc(OC)ccc1-c1ccc(CC(NC(=O)[C@H](CC(=O)O)NC(=O)[C@H](CO)NC(=O)[C@@H](NC(=O)C(C)(Cc2ccccc2F)NC(=O)[C@@H](NC(=O)CNC(=O)[C@H](CC(C(F)(F)F)C(F)(F)F)NC(=O)C(C)(C)NC(=O)[C@@H](N)Cc2c[nH]cn2)[C@@H](C)O)[C@H](C)O)C(=O)NC(CCCc2ccccc2F)C(N)=O)cc1 (single isomer, unassigned)"
  unit_text: "%"
  result_value: "00"
- molecule: "CCc1cc(OC)ccc1-c1ccc(CC(C(=O)N(C)C(CCCc2ccccc2F)C(N)=O)N(C)C(=O)[C@H](CC(=O)O)N(C)C(=O)[C@H](CO)NC(=O)[C@@H](NC(=O)C(C)(Cc2ccccc2F)NC(=O)[C@@H](NC(=O)CNC(=O)C(CCC#N)NC(=O)C(C)(C)NC(=O)[C@@H](N)Cc2c[nH]cn2)[C@H](C)O)[C@H](C)O)cc1 (single isomer, unassigned)"
  unit_text: "%"
  result_value: 40
- molecule: "CCc1cc(OC)ccc1-c1ccc(CC(NC(=O)[C@H](CC(=O)O)NC(=O)[C@H](CO)NC(=O)[C@@H](NC(=O)[C@H](Cc2ccccc2)NC(=O)[C@@H](NC(=O)CNC(=O)C(CCC#N)NC(=O)C(C)(C)NC(=O)[C@@H](N)Cc2c[nH]cn2)[C@@H](C)O)[C@@H](C)O)C(=O)NC(CCCc2ccc(F)cc2C(F)(F)F)C(N)=O)cc1 (single isomer, unassigned)"
  unit_text: "%"
  result_value: 100
- molecule: "CCc1cc(OC)ccc1-c1ccc(CC(CNC(CCCc2ccccc2)C(N)=O)NC[C@H](CC(=O)O)NC(=O)[C@H](CO)NC(=O)[C@@H](NC(=O)C(C)(Cc2ccccc2F)NC(=O)[C@@H](NC(=O)CNC(=O)[C@H](CCC(N)=O)NC(=O)C(C)(C)NC(=O)[C@@H](N)Cc2c[nH]cn2)[C@H](C)O)[C@H](C)O)cc1 (single isomer, unassigned)"
  unit_text: "%"
  result_value: "00"
- molecule: "CCc1cc(OC)ccc1-c1ccc(CC(NC(=O)[C@H](CC(=O)O)NC(=O)[C@H](CO)NC(=O)[C@@H](NC(=O)C(C)(Cc2ccccc2F)NC(=O)[C@@H](NC(=O)CNC(=O)C(CCC#N)NC(=O)C(C)(C)NC(=O)[C@H](Cc2c[nH]cn2)NC(=O)OC)[C@@H](C)O)[C@@H](C)O)C(=O)NC(CCCc2ccccc2)C(N)=O)cc1 (single isomer, unassigned)"
  unit_text: "%"
  result_value: "00"
- molecule: "CCc1cc(OC)ccc1-c1ccc(CC(NC(=O)[C@H](CC(=O)O)NC(=O)[C@H](CO)NC(=O)[C@@H](NC(=O)[C@H](Cc2ccccc2)NC(=O)[C@@H](NC(=O)CNC(=O)C(CCC#N)NC(=O)C(C)(C)NC(=O)[C@@H](N)Cc2c[nH]cn2)[C@@H](C)O)[C@@H](C)O)C(=O)NC(CCCc2ccc(Cl)cc2C)C(N)=O)cc1 (single isomer, unassigned)"
  unit_text: "%"
  result_value: 100
- molecule: "CCc1cc(OC)ccc1-c1ccc(CC(NC(=O)[C@H](CC(=O)O)NC(=O)[C@H](CO)NC(=O)[C@@H](NC(=O)[C@H](Cc2ccccc2)NC(=O)[C@@H](NC(=O)CNC(=O)[C@H](CCC(N)=O)NC(=O)[C@H](CO)NC(=O)[C@@H](N)Cc2c[nH]cn2)[C@@H](C)O)[C@@H](C)O)C(=O)NC(CCCc2ccc(Cl)cc2C)C(N)=O)cc1 (some centres unmarked) [compound 8] (H-HSQGTFTSD[ξBip(2'-Et-4'-OMe)][ξNva(5-(4-Cl-2-MePh))]-NH2)"
  unit_text: "%"
  result_value: "00"
- molecule: "CCc1cc(OC)ccc1-c1ccc(CC(NC(=O)[C@H](CC(=O)O)NC(=O)[C@H](CO)NC(=O)[C@@H](NC(=O)[C@H](Cc2ccccc2)NC(=O)[C@@H](NC(=O)CNC(=O)C(CCC#N)NC(=O)C(C)(C)NC(=O)[C@@H](N)Cc2c[nH]cn2)[C@@H](C)O)[C@@H](C)O)C(=O)NC(CCCc2ccccc2Cl)C(N)=O)cc1 (single isomer, unassigned)"
  unit_text: "%"
  result_value: "00"
- molecule: "CCc1cc(OC)ccc1-c1ccc(CC(C(=O)N(C)C(CCCc2ccccc2)C(N)=O)N(C)C(=O)[C@H](CC(=O)O)NC(=O)[C@H](CO)NC(=O)[C@@H](NC(=O)C(C)(Cc2ccccc2F)NC(=O)[C@@H](NC(=O)CNC(=O)C(CCC#N)NC(=O)C(C)(C)NC(=O)[C@@H](N)Cc2c[nH]cn2)[C@H](C)O)[C@H](C)O)cc1 (single isomer, unassigned)"
  unit_text: "%"
  result_value: 50
- molecule: "CCc1cc(OC)ccc1-c1ccc(CC(NC(=O)[C@H](CC(=O)O)NC(=O)[C@H](CO)NC(=O)[C@@H](NC(=O)[C@H](Cc2ccccc2)NC(=O)[C@@H](NC(=O)CNC(=O)C(CCC#N)NC(=O)C(C)(C)NC(=O)[C@@H](N)Cc2c[nH]cn2)[C@@H](C)O)[C@@H](C)O)C(=O)NC(CCCc2cccc(Cl)c2)C(N)=O)cc1 (single isomer, unassigned)"
  unit_text: "%"
  result_value: 100
